experiment: clinical; details: human, in vivo, 2 day
MEASUREMENT_TYPE: Subject D, Urine Results (ng/m)
Note: unit ng/m is implicit; provide only the numeric part.

Data point: CNC(=C[N+](=O)[O-])NCCSCc1ccc(CN(C)C)o1 ; Subject D, Urine Results = 4910

Data point: Cc1cc2nc3c(=O)[nH]c(=O)nc-3n(C[C@H](O)[C@H](O)[C@H](O)CO)c2cc1C ; Subject D, Urine Results = 1290

Data point: CN(C)CCOC(c1ccccc1)c1ccccc1 [Diphenhydramine] ; Subject D, Urine Results = 0

Data point: O=C1O[C@H]([C@@H](O)CO)C(O)=C1O ; Subject D, Urine Results = 2789

Data point: NC(N)=Nc1nc(CSCCC(N)=NS(N)(=O)=O)cs1 ; Subject D, Urine Results = 0
